assay: absolute recovery over mixed-bed multilayer solid-phase extraction; higher = better recovery; details: nanopure water; enrichment method: SPE
Can you tell me absolute recovery for the items I'm about to list?
Answers are plain numbers, in %.

Here's what some known entries look like.
Input: Fill blank: measured absolute recovery of the molecule CC(C)N(C(=O)CS(=O)(=O)[O-])c1ccccc1 is ____.
Output: 93.1

Input: Fill blank: measured absolute recovery of the molecule CCCCCCCCn1sccc1=O is ____.
Output: 93

Report absolute recovery for every entry below.
1. CN1CC[NH+]=C(c2ccccc2)c2cc(Cl)ccc21
2. COc1cccc(C2(O)CCCCC2C[NH+](C)C)c1 (stereo not given)
3. CN1C(=O)CCC1c1cccnc1 (stereo not given)

Output:
1. 83.9
2. 94.2
3. 109

----------
test: absolute recovery over vacuum-assisted evaporative concentration; higher = better recovery; conditions: wastewater influent; enrichment method: VEC
Can you tell me absolute recovery for the items I'm about to list?
Answers are plain numbers, in %.

Report absolute recovery for every entry below.
1. O=C([O-])C(F)(F)C(F)(F)C(F)(F)C(F)(F)C(F)(F)C(F)(F)C(F)(F)F
2. Nc1[nH]c2ccccc2[nH+]1

Output:
1. 90
2. 99.3

Report absolute recovery for every entry below.
1. O=C([O-])c1cc(Oc2ccc(Cl)cc2Cl)ccc1[N+](=O)[O-]
2. COCC(C)N(C(=O)CCl)c1c(C)csc1C (stereo not given)
3. CCNc1nc(Cl)nc(NC(C)C)n1

Output:
1: 108; 2: 92.1; 3: 97.7

----------
assay: absolute recovery over mixed-bed multilayer solid-phase extraction; higher = better recovery; conditions: surface water; enrichment method: SPE
Can you tell me absolute recovery for the items I'm about to list?
Numbers only, in %.

Here's what some known entries look like.
Input: Fill blank: measured absolute recovery of the compound COc1ccc2c(c1)c(CC(=O)[O-])c(C)n2C(=O)c1ccc(Cl)cc1 is ____.
Output: 95

Input: Fill blank: measured absolute recovery of the compound CNC(=O)ON=C(C)SC is ____.
Output: 77.3

Report absolute recovery for every entry below.
1. CCOCN(C(=O)CCl)c1c(C)cccc1CC
2. CC1(C)CC1C(=O)NC(=CCCCCSCC([NH3+])C(=O)[O-])C(=O)[O-] (centres undefined)
3. C[N-]S(=O)(=O)C(F)(F)C(F)(F)C(F)(F)C(F)(F)C(F)(F)C(F)(F)C(F)(F)C(F)(F)F
4. C[NH+](C)C(C)(C)CO
5. NC1=[NH+]CCN1Cc1ccc(Cl)nc1
6. CCc1cccc(C)c1N1C(=O)COCC1C (centres undefined)
7. CC(=O)N(CC(O)CO)c1c(I)c(C(=O)NCC(O)CO)c(I)c(C(=O)NCC(O)CO)c1I (centres undefined) [Iohexol]

Output:
[93.3, 13.1, 50.3, 7.1, 110, 86.5, 73.1]

----------
assay: absolute recovery over mixed-bed multilayer solid-phase extraction; higher = better recovery; settings: surface water; enrichment method: SPE
Decide by absolute recovery: equal to or exceeding 90% means Fulfilled, less means Not fulfilled.

Input: Please check the record CC(COc1ccccc1Cc1ccccc1)[NH+]1CCCCC1 (stereo not given) and state if its absolute recovery is at or above 90%.
Output: Fulfilled

Input: Please check the record C[NH+]1C2CCC1C(C(=O)[O-])C(OC(=O)c1ccccc1)C2 (stereo not given) and state if its absolute recovery is at or above 90%.
Output: Fulfilled

---
Input: Please check the record CCCC(C)C1(CC)C(=O)N=C([S-])NC1=O (stereo not given) and state if its absolute recovery is at or above 90%.
Output: Not fulfilled

Input: Please check the record O=C([O-])COc1ccc(Cl)cc1Cl and state if its absolute recovery is at or above 90%.
Output: Fulfilled

Input: Please check the record O=C(c1ccccc1)c1ccc(Cl)cc1 and state if its absolute recovery is at or above 90%.
Output: Fulfilled

Input: Please check the record CCc1cccc(C)c1N(C(=O)C(=O)[O-])C(C)COC (stereo not given) and state if its absolute recovery is at or above 90%.
Output: Not fulfilled

Input: Please check the record CC[N+]1([O-])CCCC1CNC(=O)c1cc(S(=O)(=O)CC)c(N)cc1OC (stereo not given) [Amisulpride-N-Oxide] and state if its absolute recovery is at or above 90%.
Output: Fulfilled

Input: Please check the record CCC(CC)OC1C=C(C(=O)[O-])CC([NH3+])C1NC(C)=O (stereo not given) and state if its absolute recovery is at or above 90%.
Output: Not fulfilled

Input: Please check the record Cc1cccc(Nc2ccncc2S(=O)(=O)[N-]C(=O)NC(C)C)c1 and state if its absolute recovery is at or above 90%.
Output: Fulfilled

Input: Please check the record O=C1Nc2ccc(Cl)cc2C(c2ccccc2Cl)=NC1O (stereo not given) and state if its absolute recovery is at or above 90%.
Output: Fulfilled
